system: HOP-62 multicell spheroids with HUVEC/MSC, viability; assay: Anticancer human tumor HOP-62 cell line growth inhibition [KRAS2]; conditions: second compound 0.316 µM; first compound 0.316 µM; hits give low values;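 also: viability read after a week of compound exposure; 100% = DMSO vehicle-treated spheroids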

molecule | unit text | viability, T/C
CCN1CCN(Cc2ccc(Nc3ncc(F)c(-c4cc(F)c5nc(C)n(C(C)C)c5c4)n3)nc2)CC1 + C=CC(=O)N1CCN(c2nc(=O)n(-c3c(C)ccnc3C(C)C)c3nc(-c4c(O)cccc4F)c(F)cc23)C(C)C1 | % | 49.8
CC(C)NCC(C(=O)N1CCN(c2ncnc3c2C(C)CC3O)CC1)c1ccc(Cl)cc1 (stereo not drawn) + C=CC(=O)N1CCN(c2nc(OCC3CCCN3C)nc3c2CCN(c2cccc4cccc(C)c24)C3)CC1CC#N | % | 15.2
CC1COCCN1c1cc(-c2ccnn2C)c2ccnc(-c3ccn[nH]3)c2n1 (stereo not drawn) + CC1OCC2(CCN(c3cnc(Sc4ccnc(N)c4Cl)c(N)n3)CC2)C1N | % | 14

###

test system: HOP-62 multicell spheroids with HUVEC/MSC, viability; assay: Anticancer human tumor HOP-62 cell line growth inhibition [KRAS2]; settings: second compound 1 µM; first compound 0.1 µM; hits give low values;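 also: viability read after a week of compound exposure; 100% = DMSO vehicle-treated spheroids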
viability, T/C values by entry
reported property: viability, T/C (%)

compound | reported property | reported
CN(C)C/C=C/C(=O)Nc1cc2c(Nc3ccc(F)c(Cl)c3)ncnc2cc1O[C@H]1CCOC1 + CC1OCC2(CCN(c3cnc(Sc4ccnc(N)c4Cl)c(N)n3)CC2)C1N | viability, T/C | 104
CC1OCC2(CCN(c3cnc(Sc4ccnc(N)c4Cl)c(N)n3)CC2)C1N (stereo not given) + C=CC(=O)N1CCN(c2nc(OCC3CCCN3C)nc3c2CCN(c2cccc4cccc(C)c24)C3)CC1CC#N | viability, T/C | 16
CC1OCC2(CCN(c3cnc(Sc4ccnc(N)c4Cl)c(N)n3)CC2)C1N (stereo not given) + COc1cc2nc(C)nc(NC(C)c3cc(N)cc(C(F)(F)F)c3)c2cc1OC1CCOC1 | viability, T/C | 77.9
CC(C)NCC(C(=O)N1CCN(c2ncnc3c2C(C)CC3O)CC1)c1ccc(Cl)cc1 (stereo not given) + C=CC(=O)N1CCN(c2nc(OCC3CCCN3C)nc3c2CCN(c2cccc4cccc(C)c24)C3)CC1CC#N | viability, T/C | 21
CC(=O)OC12COC1CC(O)C1(C)C(=O)C(O)C3=C(C)C(OC(=O)C(O)C(NC(=O)OC(C)(C)C)c4ccccc4)CC(O)(C(OC(=O)c4ccccc4)C21)C3(C)C (stereo not given) + COc1cc2nc(C)nc(NC(C)c3cc(N)cc(C(F)(F)F)c3)c2cc1OC1CCOC1 | viability, T/C | 34.2

###

test system: HOP-62 multicell spheroids with HUVEC/MSC, viability; experiment: Anticancer human tumor HOP-62 cell line growth inhibition [KRAS2]; settings: second compound 3.16 µM; first compound 0.01 µM; hits give low values;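 also: viability read after a week of compound exposure; 100% = DMSO vehicle-treated spheroids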
Labelling: viability, T/C reported below 30% becomes condition met; at or above becomes condition not met.

compound | test system | class
CC(=O)OC12COC1CC(O)C1(C)C(=O)C(O)C3=C(C)C(OC(=O)C(O)C(NC(=O)OC(C)(C)C)c4ccccc4)CC(O)(C(OC(=O)c4ccccc4)C21)C3(C)C (centres undefined) + CNCc1ccccc1-c1csc(C(C)Nc2nc(C)nc3cc(OC)c(OC)cc23)c1 | HOP-62 multicell spheroids with HUVEC/MSC, viability | condition met
CC(=O)Nc1cccc(-n2c(=O)n(C3CC3)c(=O)c3c(Nc4ccc(I)cc4F)n(C)c(=O)c(C)c32)c1 + C=CC(=O)N1CCN(c2nc(OCC3CCCN3C)nc3c2CCN(c2cccc4cccc(C)c24)C3)CC1CC#N | HOP-62 multicell spheroids with HUVEC/MSC, viability | condition met
CC(=O)Nc1cccc(-n2c(=O)n(C3CC3)c(=O)c3c(Nc4ccc(I)cc4F)n(C)c(=O)c(C)c32)c1 + CNCc1ccccc1-c1csc(C(C)Nc2nc(C)nc3cc(OC)c(OC)cc23)c1 | HOP-62 multicell spheroids with HUVEC/MSC, viability | condition met
CCN1CCN(Cc2ccc(Nc3ncc(F)c(-c4cc(F)c5nc(C)n(C(C)C)c5c4)n3)nc2)CC1 + C=CC(=O)N1CCN(c2nc(OCC3CCCN3C)nc3c2CCN(c2cccc4cccc(C)c24)C3)CC1CC#N | HOP-62 multicell spheroids with HUVEC/MSC, viability | condition met
CN(C)C/C=C/C(=O)Nc1cc2c(Nc3ccc(F)c(Cl)c3)ncnc2cc1O[C@H]1CCOC1 + C=CC(=O)N1CCN(c2nc(=O)n(-c3c(C)ccnc3C(C)C)c3nc(-c4c(O)cccc4F)c(F)cc23)C(C)C1 | HOP-62 multicell spheroids with HUVEC/MSC, viability | condition not met
CC(=O)OC12COC1CC(O)C1(C)C(=O)C(O)C3=C(C)C(OC(=O)C(O)C(NC(=O)OC(C)(C)C)c4ccccc4)CC(O)(C(OC(=O)c4ccccc4)C21)C3(C)C (centres undefined) + C=CC(=O)N1CCN(c2nc(=O)n(-c3c(C)ccnc3C(C)C)c3nc(-c4c(O)cccc4F)c(F)cc23)C(C)C1 | HOP-62 multicell spheroids with HUVEC/MSC, viability | condition not met
CN(C)C/C=C/C(=O)Nc1cc2c(Nc3ccc(F)c(Cl)c3)ncnc2cc1O[C@H]1CCOC1 + CNCc1ccccc1-c1csc(C(C)Nc2nc(C)nc3cc(OC)c(OC)cc23)c1 | HOP-62 multicell spheroids with HUVEC/MSC, viability | condition met
CCN1CCN(Cc2ccc(Nc3ncc(F)c(-c4cc(F)c5nc(C)n(C(C)C)c5c4)n3)nc2)CC1 + COc1cc2nc(C)nc(NC(C)c3cc(N)cc(C(F)(F)F)c3)c2cc1OC1CCOC1 | HOP-62 multicell spheroids with HUVEC/MSC, viability | condition not met
